Parameter: solubility thermodynamic. Scope: all listed entries.
TEST_DESCRIPTION: Intrinsic aqueous solubility of compound at pH 7.4 by LC-MS based shake-flask method
Format: physicochemical
EXPERIMENTAL_CONDITIONS: read-out: Intrinsic_solubility
REPORTED_METRIC: solubility thermodynamic (µg/mL)

- SMILES_RECORD: "O=C1CCc2cccc(c2)OCCCC/C=C/CCCC(=O)Nc2nnc(s2)CCCCc2ccc(nn2)N1"
  OBSERVED_VALUE: 1.84
- SMILES_RECORD: "O=C1CCCC/C=C/CCCCOc2cccc(c2)CCC(=O)Nc2nnc(s2)CCCCc2ccc(nn2)N1"
  OBSERVED_VALUE: 1.97
- SMILES_RECORD: "O=C1CCc2cccc(c2)OCC/C=C/CCCC(=O)Nc2nnc(s2)CCCCc2ccc(nn2)N1"
  OBSERVED_VALUE: 2.05
- SMILES_RECORD: "O=C1Cc2cccc(c2)OCCCC/C=C/CCCCOc2cccc(c2)CC(=O)NC2=NN=C(CCCCC3=NN=C(N1)S3)S2"
  OBSERVED_VALUE: 0.22
- SMILES_RECORD: "O=C1Cc2ccc(cc2)OCC/C=C/CCOc2ccc(cc2)CC(=O)Nc2nnc(s2)CCCCc2nnc(s2)N1"
  OBSERVED_VALUE: 0.33
- SMILES_RECORD: "O=C1Cc2cccc(c2)OCCC/C=C/CCCOc2cccc(c2)CC(=O)NC2=NN=C(CCCCC3=NN=C(N1)S3)S2"
  OBSERVED_VALUE: 0.25
- SMILES_RECORD: "O=C1Cc2cccc(c2)OC/C=C/COc2cccc(c2)CC(=O)NC2=NN=C(CCCCC3=NN=C(N1)S3)S2"
  OBSERVED_VALUE: 0.34
- SMILES_RECORD: "O=C1CC/C=C/CCC(=O)Nc2cccc(c2)CC(=O)Nc2nnc(s2)CCCCc2ccc(nn2)NC(=O)Cc2cccc(c2)N1"
  OBSERVED_VALUE: 2.34
